Data provenance: ChEMBL document CHEMBL3991601

Calls of active or inactive are those of the source.
Serine/threonine-protein kinase PAK 4 (Homo sapiens): recorded Kd for assorted molecules; note: in the data inactive means no Kd found up to 30 µM
Sequence (O96013 whole entry): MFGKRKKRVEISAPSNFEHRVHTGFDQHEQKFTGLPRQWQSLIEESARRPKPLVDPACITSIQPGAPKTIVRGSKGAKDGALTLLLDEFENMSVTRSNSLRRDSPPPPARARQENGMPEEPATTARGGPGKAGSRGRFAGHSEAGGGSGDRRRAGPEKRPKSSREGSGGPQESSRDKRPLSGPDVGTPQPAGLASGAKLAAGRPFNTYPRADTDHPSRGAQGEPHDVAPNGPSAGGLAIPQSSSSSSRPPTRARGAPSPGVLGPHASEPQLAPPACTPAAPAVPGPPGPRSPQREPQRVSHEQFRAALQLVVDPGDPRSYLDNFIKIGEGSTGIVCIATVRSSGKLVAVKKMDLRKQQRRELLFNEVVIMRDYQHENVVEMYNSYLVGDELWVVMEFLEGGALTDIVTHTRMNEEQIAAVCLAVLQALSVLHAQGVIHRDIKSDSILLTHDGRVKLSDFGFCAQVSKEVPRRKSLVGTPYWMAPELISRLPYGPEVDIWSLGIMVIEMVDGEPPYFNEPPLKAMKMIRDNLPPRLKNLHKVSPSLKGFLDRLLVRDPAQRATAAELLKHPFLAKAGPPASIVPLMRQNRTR

Cc1cc(Nc2ncnc3ccc(NC4=NC(C)(C)CO4)cc23)ccc1Oc1ccn2ncnc2c1: > 30 µM (inactive)
COc1ccc(S(=O)(=O)N(C(C)=O)c2ccccc2/C=C/c2cc[n+]([O-])cc2)cc1: > 30 µM (inactive)
O=c1[nH]ccc2cc(OC3CCNCC3)ccc12 [SAR-407899 FREE BASE]: > 30 µM (inactive)
Nc1ncnc2c1c(-c1cccc(OCc3ccccc3)c1)cn2[C@H]1C[C@@H](CN2CCC2)C1: > 30 µM (inactive)
COc1c(OCCCN2CCOCC2)ccc2c1N=C(NC(=O)c1cnc(N)nc1)N1CCN=C21: > 30 µM (inactive)
CN1CCN(CCOc2cc(OC3CCOCC3)c3c(Nc4c(Cl)ccc5c4OCO5)ncnc3c2)CC1: > 30 µM (inactive)
O=C(Cc1ccc(-c2ccc(OCCN3CCOCC3)cc2)cn1)NCc1ccccc1: > 30 µM (inactive)
COCC(=O)NC/C=C/c1ccc2ncnc(Nc3ccc(Oc4ccc(C)nc4)c(C)c3)c2c1: > 30 µM (inactive)

Parameters: items (list). Returns: Kd for each item.
1. CO[C@H]1C[C@@H]2CC[C@@H](C)[C@@](O)(O2)C(=O)C(=O)N2CCCC[C@H]2C(=O)O[C@H]([C@H](C)C[C@@H]2CC[C@@H](OP(C)(C)=O)[C@H](OC)C2)CC(=O)[C@H](C)/C=C(\C)[C@@H](O)[C@@H](OC)C(=O)[C@H](C)C[C@H](C)/C=C/C=C/C=C/1C
2. CCCCCCCCCCCCCCCCCCOP(=O)([O-])OC1CC[N+](C)(C)CC1

Result:
1: > 30 µM (inactive); 2: > 30 µM (inactive)

====

System Tested: Dual specificity mitogen-activated protein kinase kinase 5 (Homo sapiens); note: in the data inactive means no Kd found up to 30 µM
Sequence (Q13163 whole entry): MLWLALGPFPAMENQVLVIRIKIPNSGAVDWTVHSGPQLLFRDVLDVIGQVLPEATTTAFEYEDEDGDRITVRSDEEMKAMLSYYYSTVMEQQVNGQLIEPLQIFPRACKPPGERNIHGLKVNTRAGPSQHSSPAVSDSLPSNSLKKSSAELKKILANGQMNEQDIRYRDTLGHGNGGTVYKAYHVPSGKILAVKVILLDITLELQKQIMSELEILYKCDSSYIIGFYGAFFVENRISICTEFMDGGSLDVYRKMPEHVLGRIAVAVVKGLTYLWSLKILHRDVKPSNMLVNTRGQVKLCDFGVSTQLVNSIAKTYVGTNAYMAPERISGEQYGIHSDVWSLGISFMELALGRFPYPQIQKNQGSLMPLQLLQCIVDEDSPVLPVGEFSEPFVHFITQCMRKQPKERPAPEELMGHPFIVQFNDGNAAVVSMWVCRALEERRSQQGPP
Structures can show the parent of a compound that is named as a salt. Active and inactive are the calls of the source.
Hi there, use one of these labels in your reply, thanks! active, inactive

CCS(=O)(=O)N1CCN(c2ccc(Nc3ncc(C(N)=O)c(NC4CC4)n3)cc2)CC1 [Cerdulatinib Hydrochloride]: active
Cn1cnc2c(F)c(Nc3ccc(Br)cc3F)c(C(=O)NOCCO)cc21: inactive

Ask: Recorded test outcome, item `Cc1cccc(-c2nn3c(c2-c2ccnc4ccc(C(N)=O)cc24)CCC3)n1`
Result: inactive

Ask: Recorded test outcome, item `CC(=O)c1cnc2ccc(-c3cc(Cl)c(O)c(Cl)c3)nc2c1N[C@H]1CC[C@H](CN(C)C)CC1`
Result: active

Ask: Recorded test outcome, item `Cc1cc(Nc2ncnc3ccc(NC4=NC(C)(C)CO4)cc23)ccc1Oc1ccn2ncnc2c1`
Result: inactive

Ask: Recorded test outcome, item `Cc1cc(C(=O)NOCCO)c(Nc2ccc(I)cc2F)n(C)c1=O`
Result: active

Ask: Recorded test outcome, item `COc1c(OCCCN2CCOCC2)ccc2c1N=C(NC(=O)c1cnc(N)nc1)N1CCN=C21`
Result: inactive

Ask: Recorded test outcome, item `Cc1nc(NC(=O)N2CCC[C@H]2C(N)=O)sc1-c1ccnc(C(C)(C)C(F)(F)F)c1`
Result: inactive

====

System Tested: Fibroblast growth factor receptor 1 (Homo sapiens, UniProt P11362); note: in the data inactive means no Kd found up to 30 µM
Sequence (P11362 whole entry): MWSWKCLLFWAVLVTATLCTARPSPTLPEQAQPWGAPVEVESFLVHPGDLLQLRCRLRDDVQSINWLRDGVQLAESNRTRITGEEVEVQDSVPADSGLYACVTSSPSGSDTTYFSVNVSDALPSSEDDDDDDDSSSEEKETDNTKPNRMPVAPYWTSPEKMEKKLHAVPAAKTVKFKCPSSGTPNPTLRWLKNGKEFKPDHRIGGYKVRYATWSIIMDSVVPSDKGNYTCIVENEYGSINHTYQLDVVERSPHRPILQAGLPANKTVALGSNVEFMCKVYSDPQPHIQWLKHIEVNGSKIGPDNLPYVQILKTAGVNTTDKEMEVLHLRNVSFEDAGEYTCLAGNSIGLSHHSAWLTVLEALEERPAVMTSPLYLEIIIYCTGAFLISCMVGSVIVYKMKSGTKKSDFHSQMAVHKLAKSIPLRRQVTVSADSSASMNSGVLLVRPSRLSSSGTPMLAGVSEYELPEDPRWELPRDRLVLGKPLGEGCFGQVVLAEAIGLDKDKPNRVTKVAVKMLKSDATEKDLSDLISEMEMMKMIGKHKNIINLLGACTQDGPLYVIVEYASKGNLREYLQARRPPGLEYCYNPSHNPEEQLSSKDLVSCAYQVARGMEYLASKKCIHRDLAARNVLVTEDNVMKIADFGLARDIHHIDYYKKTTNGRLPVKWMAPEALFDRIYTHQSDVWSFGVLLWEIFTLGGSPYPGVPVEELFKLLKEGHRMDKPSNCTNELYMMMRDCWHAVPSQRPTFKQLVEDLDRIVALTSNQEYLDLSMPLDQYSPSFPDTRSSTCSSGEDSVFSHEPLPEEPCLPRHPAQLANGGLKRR
Calls of active or inactive are those of the source.
Hi there, use one of these labels in your reply, thanks! true = active, false = inactive

The examples below pair each entry with its known result.
Cn1ncc(Cl)c1-c1cc(C(=O)N[C@H](CN)Cc2ccc(F)c(F)c2)oc1Cl [UPROSERTIB]: false
C=CC(=O)N1CCC[C@H](n2c(=O)n(-c3ccc(Oc4ccccc4)cc3)c3c(N)ncnc32)C1: false
COc1ncc(-c2ccc3nccc(-c4ccnnc4)c3c2)cc1NS(=O)(=O)c1ccc(F)cc1F [OMIPALISIB]: false
CCn1c(C(=O)N(C2CC2)C2CC2)cc2c3c(ncn3C)c(Nc3cc(C)n(C)n3)nc21 [BMS-911543]: false
O=C(Nc1nc2cccc(-c3ccc(CN4CCS(=O)(=O)CC4)cc3)n2n1)C1CC1 [FILGOTINIB]: false

Ask: Recorded test outcome, item `CC(=O)c1cnc2ccc(-c3cc(Cl)c(O)c(Cl)c3)nc2c1N[C@H]1CC[C@H](CN(C)C)CC1`
Result: false

Ask: Recorded test outcome, item C[C@@H](N)c1ccc(C(=O)Nc2ccnc3[nH]ccc23)cc1 [Y-39983]
Result: false

Ask: Recorded test outcome, item CN1C/C=C/CCOc2cccc(c2)-c2ccnc(n2)Nc2cccc(c2)C1 [ZOTIRACICLIB]
Result: false

Ask: Recorded test outcome, item CNC(=O)c1nn(C)c2c1C(C)(C)Cc1cnc(Nc3ccc(N4CCN(C)CC4)cc3)nc1-2 [MILCICLIB]
Result: true

Ask: Recorded test outcome, item Cc1cc(Nc2ncc(Cl)c(Nc3ccccc3S(=O)(=O)C(C)C)n2)c(OC(C)C)cc1C1CCNCC1 [CERITINIB]
Result: false

Ask: Recorded test outcome, item N#CC1(c2ccc(NC(=O)c3cccnc3NCc3ccncc3)cc2)CCCC1 [RIVOCERANIB]
Result: false

Ask: Recorded test outcome, item C=CC(=O)Nc1cc2c(Nc3ccc(F)c(Cl)c3)ncnc2cc1C#CC(C)(C)N1CCN(C)CC1 [AV-412 FREE BASE]
Result: false

Ask: Recorded test outcome, item O=C1NC(=O)[C@@H](c2cn3c4c(cccc24)CCC3)[C@@H]1c1c[nH]c2ccccc12 [TIVANTINIB]
Result: false

Ask: Recorded test outcome, item COCC(=O)NC/C=C/c1ccc2ncnc(Nc3ccc(Oc4ccc(C)nc4)c(C)c3)c2c1 [CP-724714]
Result: false

====

Give Kd for every item shown.
System Tested: Aurora kinase A (Homo sapiens); note: in the data inactive means no Kd found up to 30 µM
Sequence (O14965 whole entry): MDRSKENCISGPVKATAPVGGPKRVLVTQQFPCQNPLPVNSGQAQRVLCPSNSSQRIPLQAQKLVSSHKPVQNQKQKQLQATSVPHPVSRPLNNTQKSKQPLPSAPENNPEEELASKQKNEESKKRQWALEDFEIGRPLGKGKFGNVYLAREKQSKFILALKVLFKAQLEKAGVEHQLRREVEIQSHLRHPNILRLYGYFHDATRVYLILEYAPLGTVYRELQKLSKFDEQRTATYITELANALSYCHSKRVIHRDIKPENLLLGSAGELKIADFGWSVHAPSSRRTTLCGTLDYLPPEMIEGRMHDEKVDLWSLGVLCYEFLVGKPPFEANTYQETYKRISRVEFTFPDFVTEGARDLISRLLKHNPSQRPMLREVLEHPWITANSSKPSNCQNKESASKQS
Activity calls are given as the source filed them.

Please review the following examples before continuing.
NC1(c2ccc(-c3nc4ccn5c(=O)[nH]nc5c4cc3-c3ccccc3)cc2)CCC1 [MK-2206]: > 30 µM (inactive)
COc1ccc(S(=O)(=O)N(C(C)=O)c2ccccc2/C=C/c2cc[n+]([O-])cc2)cc1 [HMN-214]: > 30 µM (inactive)
FC(F)(F)c1ccc(/C=C/c2nc(COc3ccc(CCCCn4ccnn4)cc3)co2)cc1 [MUBRITINIB]: > 30 µM (inactive)
NC(=O)Nc1cc(-c2cccc(F)c2)sc1C(=O)N[C@H]1CCCNC1 [AZD-7762]: > 30 µM (inactive)

Parameters: items (list). Returns: Kd for each item.
1. C=CC(=O)N1CCC[C@H](n2c(=O)n(-c3ccc(Oc4ccccc4)cc3)c3c(N)ncnc32)C1
2. CN1CCN(CCOc2cc(OC3CCOCC3)c3c(Nc4c(Cl)ccc5c4OCO5)ncnc3c2)CC1 [SARACATINIB]
3. Cn1cc(-c2cnc3ccc4ccc(CS(=O)(=O)NCc5ccccn5)cc4c(=O)c3c2)cn1 [MK-8033]
4. COc1ncc(-c2ccc3nccc(-c4ccnnc4)c3c2)cc1NS(=O)(=O)c1ccc(F)cc1F [OMIPALISIB]

Result:
> 30 µM (inactive)
> 30 µM (inactive)
> 30 µM (inactive)
> 30 µM (inactive)

====

System Tested: Ephrin type-A receptor 7 (Homo sapiens, UniProt Q15375); note: in the data inactive means no Kd found up to 30 µM
Sequence (Q15375 whole entry): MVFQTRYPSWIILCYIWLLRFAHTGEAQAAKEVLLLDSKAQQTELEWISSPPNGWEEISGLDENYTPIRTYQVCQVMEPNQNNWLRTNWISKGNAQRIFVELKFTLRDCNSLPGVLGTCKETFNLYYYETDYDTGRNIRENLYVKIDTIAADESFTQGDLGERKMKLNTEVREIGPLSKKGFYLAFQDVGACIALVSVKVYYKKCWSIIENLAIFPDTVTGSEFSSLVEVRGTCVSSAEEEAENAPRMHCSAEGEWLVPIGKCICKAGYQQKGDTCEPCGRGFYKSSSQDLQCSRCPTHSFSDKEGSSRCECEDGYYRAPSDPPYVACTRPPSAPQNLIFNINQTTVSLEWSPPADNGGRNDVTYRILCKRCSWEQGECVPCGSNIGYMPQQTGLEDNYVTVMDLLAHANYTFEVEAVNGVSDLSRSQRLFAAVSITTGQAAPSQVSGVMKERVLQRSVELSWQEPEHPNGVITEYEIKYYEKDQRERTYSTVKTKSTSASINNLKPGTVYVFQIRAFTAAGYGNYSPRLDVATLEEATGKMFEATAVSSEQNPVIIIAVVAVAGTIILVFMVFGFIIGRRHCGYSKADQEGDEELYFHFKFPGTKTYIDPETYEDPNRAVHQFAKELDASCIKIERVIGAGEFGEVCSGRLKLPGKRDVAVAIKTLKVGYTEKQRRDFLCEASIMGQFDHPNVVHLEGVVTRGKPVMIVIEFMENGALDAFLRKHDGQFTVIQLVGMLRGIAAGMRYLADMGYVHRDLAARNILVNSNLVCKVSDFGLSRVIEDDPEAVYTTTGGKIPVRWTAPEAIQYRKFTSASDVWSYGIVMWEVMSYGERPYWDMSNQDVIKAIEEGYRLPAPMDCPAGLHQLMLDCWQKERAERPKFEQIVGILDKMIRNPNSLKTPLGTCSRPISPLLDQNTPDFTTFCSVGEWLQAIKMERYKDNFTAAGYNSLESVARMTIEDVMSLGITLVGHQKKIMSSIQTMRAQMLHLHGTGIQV
The source made the active and inactive calls.
Property: Kd

Please review the following examples before continuing.
CCOc1cc2ncc(C#N)c(Nc3ccc(F)c(Cl)c3)c2cc1NC(=O)/C=C/CN(C)C: > 30 µM (inactive)
Cc1nc(Nc2n[nH]c3c2CN(C(=O)N[C@H](CN(C)C)c2ccccc2)C3(C)C)c2sccc2n1: > 30 µM (inactive)
CC(=O)c1cnc2ccc(-c3cc(Cl)c(O)c(Cl)c3)nc2c1N[C@H]1CC[C@H](CN(C)C)CC1: 0.016 µM
CN1CCN(CCOc2cc(OC3CCOCC3)c3c(Nc4c(Cl)ccc5c4OCO5)ncnc3c2)CC1: > 30 µM (inactive)

# ---- query molecule ----
The molecule listed as `Cn1ncc(Cl)c1-c1cc(C(=O)N[C@H](CN)Cc2ccc(F)c(F)c2)oc1Cl` shows Kd equal to > 30 µM (inactive)

====

System Tested: Ribosyldihydronicotinamide dehydrogenase [quinone] (Homo sapiens); note: in the data inactive means no Kd found up to 30 µM
Sequence (P16083 whole entry): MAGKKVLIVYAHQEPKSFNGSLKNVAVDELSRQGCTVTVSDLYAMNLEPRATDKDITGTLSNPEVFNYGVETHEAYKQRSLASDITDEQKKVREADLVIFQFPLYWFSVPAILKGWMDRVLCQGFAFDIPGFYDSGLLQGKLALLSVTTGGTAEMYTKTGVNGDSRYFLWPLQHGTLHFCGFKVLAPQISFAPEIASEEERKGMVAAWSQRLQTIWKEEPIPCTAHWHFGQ
The source made the active and inactive calls.
Hi there, use one of these labels in your reply, thanks! TRUE = active, FALSE = inactive

CNC(=O)c1cc(Oc2ccc(NC(=O)Nc3cc(C(C)(C)C)nn3-c3ccc4ncccc4c3)c(F)c2)ccn1 [REBASTINIB]: FALSE
C[C@H]1CNCCCN1S(=O)(=O)c1cccc2cncc(F)c12: TRUE

Ask: Recorded test outcome, item COc1cc([C@@H]2c3cc4c(cc3[C@H](O)[C@H]3COC(=O)[C@@H]23)OCO4)cc(OC)c1OC [AXL-1717]
Result: FALSE

====

Eukaryotic translation initiation factor 2-alpha kinase 1 (Homo sapiens, UniProt Q9BQI3): recorded Kd for assorted compounds; note: in the data inactive means no Kd found up to 30 µM
Sequence (Q9BQI3 whole entry): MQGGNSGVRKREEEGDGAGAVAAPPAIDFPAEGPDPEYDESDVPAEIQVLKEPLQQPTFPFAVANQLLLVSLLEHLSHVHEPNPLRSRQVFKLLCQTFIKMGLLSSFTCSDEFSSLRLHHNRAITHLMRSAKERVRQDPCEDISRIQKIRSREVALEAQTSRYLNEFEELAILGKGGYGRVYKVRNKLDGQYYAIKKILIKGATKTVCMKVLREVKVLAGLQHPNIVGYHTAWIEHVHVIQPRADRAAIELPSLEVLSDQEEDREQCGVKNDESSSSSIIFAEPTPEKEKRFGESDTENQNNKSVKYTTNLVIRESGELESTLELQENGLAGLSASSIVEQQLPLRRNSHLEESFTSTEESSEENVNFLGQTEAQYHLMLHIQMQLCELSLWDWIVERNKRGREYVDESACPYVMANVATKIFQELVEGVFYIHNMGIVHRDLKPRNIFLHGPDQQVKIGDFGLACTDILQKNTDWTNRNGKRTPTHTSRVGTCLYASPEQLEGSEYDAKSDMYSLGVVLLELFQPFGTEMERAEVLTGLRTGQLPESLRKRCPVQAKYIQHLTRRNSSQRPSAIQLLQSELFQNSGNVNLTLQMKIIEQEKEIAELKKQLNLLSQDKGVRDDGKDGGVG
Calls of active or inactive are those of the source.

Please review the following examples before continuing.
Cn1cnc2c(F)c(Nc3ccc(Br)cc3F)c(C(=O)NOCCO)cc21: > 30 µM (inactive)
CCS(=O)(=O)c1cccc(-c2cc(C(=O)NC3CCN(C)CC3)c(C)c3[nH]c4ncc(C)cc4c23)c1: > 30 µM (inactive)

# ---- query compound ----
The compound listed as `O=C(Cc1ccc(-c2ccc(OCCN3CCOCC3)cc2)cn1)NCc1ccccc1` shows Kd equal to > 30 µM (inactive)
